Listed compounds paired with reported melting point
property measured: melting point

- compound: "CC12CCC3C(CC=C4CC(O[Si](C)(C)C(C)(C)C)CCC43C)C1CCC2=O (stereo unspecified)"
  property measured: "melting point"
  observed result: "146 to 148 °C"
- compound: "NC1CN(c2c(F)c(F)c3c(=O)c(C(=O)O)cn(C4CC4)c3c2F)CC1CF (stereo unspecified)"
  property measured: "melting point"
  observed result: "252 to 253 °C"
- compound: "COC(=O)Cc1ccc(C(=O)OC)cn1"
  property measured: "melting point"
  observed result: "56 to 57 °C"
- compound: "N#CC[C@H](NC(=O)c1ccc2ccccc2c1)C(=O)O"
  property measured: "melting point"
  observed result: "95 to 100 °C"
- compound: "CON=C1C(c2ccccc2)=C(c2ccc(S(C)(=O)=O)cc2)C1(C)C"
  property measured: "melting point"
  observed result: "146 to 147 °C"
- compound: "CCOC(=O)C1OC1C(=O)N(C)C1CCCCC1 (stereo unspecified)"
  property measured: "melting point"
  observed result: "52 to 55 °C"

###

property measured: melting point

- compound: "CS(=O)(=O)c1cc(C(=O)O)cc(Cl)c1Nc1ccccc1"
  observed result: "187 to 189 °C"
- compound: "CC(=O)c1cc(I)c2c(c1)C=CC(C)(C)O2"
  observed result: "102 °C"
- compound: "C=CCC1Cn2c(ncc(C(=O)O)c2=O)-c2cc(OC)ccc21 (stereo unspecified)"
  observed result: "128 to 130 °C"
- compound: "O=CC1=Cc2cc(OCCCc3ccccc3)ccc2OC1"
  observed result: "71 to 73 °C"
- compound: "CC(C)c1nc(COCc2ccccc2)n(CF)c1Sc1cc(Cl)cc(Cl)c1"
  observed result: "115 to 117 °C"
- compound: "Cc1ccc(S(=O)(=O)n2ccc3cc(-c4ccccc4)cnc32)cc1"
  observed result: "151 to 152 °C"
- compound: "CC(C)c1c(Cl)sc2[nH]c(=O)c(=O)[nH]c12"
  observed result: "> 250 °C"
- compound: "O=C(Nc1ccc2ccccc2c1-c1c(P(=O)(c2ccccc2)c2ccccc2)ccc2ccccc12)c1ccccc1"
  observed result: "247 °C"
- compound: "Clc1ccc2nc(-c3cccnc3)[nH]c2c1"
  observed result: "244 to 246 °C"
- compound: "C=C(c1ccc(Br)cc1)c1ccc(OC)cc1"
  observed result: "91.2 to 92.6 °C"
- compound: "O=C(O)CN1C(=O)c2cccc3c(Sc4ccccc4C(=O)O)ccc(c23)C1=O"
  observed result: "339 to 341 °C"
- compound: "CCOC(=O)c1c(C)cc(O)c(C(=O)OCC)c1O"
  observed result: "61 to 62 °C"
- compound: "CCOC(=O)C(=NOC(C)C)c1csc(N)n1"
  observed result: "162 to 164 °C"
- compound: "O=C(NC(CCC(=O)N1CCCC1C(=O)O)C(=O)O)c1ccccc1 (stereo unspecified)"
  observed result: "102 to 104 °C"
- compound: "COC(=O)Cc1c(C(=O)OC)ccn1CCOS(C)(=O)=O"
  observed result: "99 to 101 °C"
- compound: "C#Cc1ccc(-c2ccccc2F)cc1"
  observed result: "28.5 to 31 °C"
- compound: "COC(=O)CCC#Cc1cc(Cl)ccc1NS(=O)(=O)c1ccc(C(F)(F)F)cc1"
  observed result: "80 °C"
- compound: "CCN(Cc1ccccc1)c1nc(=O)c2cc(C(F)(F)F)cc([N+](=O)[O-])c2s1"
  observed result: "94 to 97 °C"
- compound: "CC(C)(C)[Si](C)(C)Oc1ccc2c(N3C(=O)c4ccccc4C3=O)n[nH]c2c1"
  observed result: "207 to 209 °C"
- compound: "CC(C)(C(N)=O)/C(F)=C(/F)c1ccc(Cl)cc1"
  observed result: "99 °C"
- compound: "CC(Br)=C(Br)CC(O)(Cn1cncn1)C1(Cl)CC1 (stereo unspecified)"
  observed result: "55 to 56 °C"

###

property measured: melting point

- compound: "Clc1nccnc1OCCOc1cccc(Br)c1"
  property measured: "melting point"
  observed result: "57 to 58 °C"
- compound: "CC(=O)Nc1nc(=O)n(C(=O)c2ccc(C)cc2)cc1F"
  property measured: "melting point"
  observed result: "147 to 148 °C"
- compound: "CC1(C)CCC(C)(C)c2cc(N(Cc3ccc(F)cc3)C(=O)Nc3ccc(C(=O)O)cc3)ccc21"
  property measured: "melting point"
  observed result: "143 to 146 °C"
- compound: "CCCCc1nc2cscc2[nH]1"
  property measured: "melting point"
  observed result: "118 °C"
- compound: "CC(C)c1cccc(C(C)C)c1NC(=O)C(Cc1ccccc1)NC(=O)NCc1ccccc1 (stereo unspecified)"
  property measured: "melting point"
  observed result: "240 to 241 °C"
- compound: "O=C(O)Cc1cnn(-c2ccc(Cl)cc2)c1-c1ccc(Cl)cc1"
  property measured: "melting point"
  observed result: "195 to 196 °C"
- compound: "O=C(NC(Cc1ccc(OCc2ccccc2)cc1)C(=O)O)c1cn2cc(-c3cccnc3)ccc2n1 (stereo unspecified)"
  property measured: "melting point"
  observed result: "244 °C"
- compound: "COc1cc(CO)c([N+](=O)[O-])cc1OCCCC(=O)O"
  property measured: "melting point"
  observed result: "172 to 175 °C"
- compound: "CCOC(=O)c1cn2c3c(ccc(Cl)c3c1=O)OCC2C (stereo unspecified)"
  property measured: "melting point"
  observed result: "205 to 206 °C"
- compound: "CCn1cc(C(=O)O)c(=O)c2cc(F)c(N3CC4CCC3CN4)cc21 (stereo unspecified)"
  property measured: "melting point"
  observed result: "270 to 272 °C"
- compound: "CC(C)c1c2n(c(=O)c3ccccc13)CCCS2"
  property measured: "melting point"
  observed result: "123 to 124 °C"
- compound: "CN1C(=O)CC[C@]2(C)c3ccc(-c4ccc(C(F)(F)F)cc4)cc3CC[C@@H]12"
  property measured: "melting point"
  observed result: "86 to 89 °C"
- compound: "CCOC(=O)NC[C@H]1CN(c2ccc(N3CCC(n4ncnn4)CC3)c(F)c2)C(=O)O1"
  property measured: "melting point"
  observed result: "176 to 178 °C"
- compound: "COc1nc(C)nc(OC)c1N1CCCn2c1nc1c(Cl)ccc(C(O)(C3CC3)C3CC3)c12"
  property measured: "melting point"
  observed result: "204 to 205 °C"
- compound: "COC1=C(c2ccccc2)C(CCCC(=O)O)OC1=O (stereo unspecified)"
  property measured: "melting point"
  observed result: "94 to 96 °C"
- compound: "CC(=O)NC1=C(c2cccc(C(F)(F)F)c2)C(=O)OC1"
  property measured: "melting point"
  observed result: "140 °C"
- compound: "COc1cc(CC(=O)NCCOc2ccc(C)c(C)c2)ccc1OCCN"
  property measured: "melting point"
  observed result: "95 to 97 °C"
- compound: "O=c1c(O)c(-c2ccc[nH]2)oc2ccccc12"
  property measured: "melting point"
  observed result: "201 to 203 °C"
- compound: "CCCCCCCCCCCCCCCCCCOc1cc(OCCCCC(=O)O)cc(N(CC(=O)O)CC(=O)O)c1"
  property measured: "melting point"
  observed result: "126 to 128 °C"
- compound: "N#Cc1cccc(-c2c(C(N)=O)c3n(c2Cl)CCN(C(=O)NC2CCOCC2)C3)c1"
  property measured: "melting point"
  observed result: "236 to 238 °C"
- compound: "NC(=NO)C1CCc2ccccc2CC1"
  property measured: "melting point"
  observed result: "219 °C"
- compound: "CCC(NC(=O)NS(=O)(=O)C=Cc1ccccc1)C(=O)O (stereo unspecified)"
  property measured: "melting point"
  observed result: "150 to 152 °C"
- compound: "CSc1cc2ccc(-c3ccccc3)cc2cc1O"
  property measured: "melting point"
  observed result: "149 to 150 °C"
- compound: "Cc1ccc(CSc2nc3cscc3n2C(=O)OC(C)(C)C)nc1"
  property measured: "melting point"
  observed result: "115 to 117 °C"
- compound: "COC(=O)C1(CCCN2CCN(c3ccccc3)CC2)Oc2ccccc2OCC1O (stereo unspecified)"
  property measured: "melting point"
  observed result: "113 to 115 °C"
- compound: "CC1(C)Oc2ccc(OCc3nc4cc(F)c(F)cc4s3)cc2[C@H](O)[C@@H]1c1cccc(NS(=O)(=O)C(F)(F)F)c1"
  property measured: "melting point"
  observed result: "191 to 193 °C"
- compound: "Cc1cc(C2CCN(S(=O)(=O)C3(C(=O)NO)CCN(C(=O)OC(C)(C)C)CC3)CC2)ccc1-c1cccc(OCCO)n1"
  property measured: "melting point"
  observed result: "180 to 181 °C"
- compound: "Cc1cc(-c2ccc(O)cc2)ccc1C=O"
  property measured: "melting point"
  observed result: "161 to 162 °C"
- compound: "CC(=O)OCC(C)(CC(C)(C)C)C(=O)O (stereo unspecified)"
  property measured: "melting point"
  observed result: "89.5 to 90.5 °C"
- compound: "CC(C)CCN1C(=O)C2(COc3cc(O)c(C(=O)C(F)(F)F)cc32)c2ccccc21 (stereo unspecified)"
  property measured: "melting point"
  observed result: "87 to 88 °C"
- compound: "O=Cc1ccc(-c2cccc(-c3cn([C@H]4CN5CCC4CC5)nn3)c2)s1"
  property measured: "melting point"
  observed result: "150 °C"
- compound: "CC(Nc1ccccc1)c1ccc(C(C)Nc2ccccc2)cc1 (stereo unspecified)"
  property measured: "melting point"
  observed result: "169 to 170 °C"
- compound: "COc1ccc(Cc2ccc(C(=O)O)cc2)cc1"
  property measured: "melting point"
  observed result: "152 to 153 °C"
- compound: "COC(=O)c1cc(-c2ccc(S(C)(=O)=O)cc2)n(-c2ccc(F)cc2)c1"
  property measured: "melting point"
  observed result: "144 to 146 °C"
- compound: "COc1ccc(C(=O)NN=Cc2ccc3ccccc3n2)cc1"
  property measured: "melting point"
  observed result: "217 to 218 °C"
- compound: "CCOC(=O)c1cnn(C)c1S(N)(=O)=O"
  property measured: "melting point"
  observed result: "102 to 104 °C"
- compound: "CC(C)c1cc(C(=O)CNc2ccc(C(=O)O)cc2)oc1C(C)C"
  property measured: "melting point"
  observed result: "184 to 186 °C"
- compound: "CC(C)(C)OC(=O)NCCc1ccc(O)cc1"
  property measured: "melting point"
  observed result: "61 to 62 °C"
- compound: "CCC(C)CNc1cccc(-c2ccnc3c(C(=O)c4cccs4)cnn23)c1 (stereo unspecified)"
  property measured: "melting point"
  observed result: "210 to 212 °C"
- compound: "CN(C)S(=O)(=O)c1ccc2c(c1)S(=O)(=O)NC2=O"
  property measured: "melting point"
  observed result: "198 to 200 °C"
- compound: "CCC1(CCCCN2CCN(c3ccc(C)c(Cl)c3)CC2)C(=O)Nc2ccccc21 (stereo unspecified)"
  property measured: "melting point"
  observed result: "103 to 106 °C"

Just for reference, a melting point compilation (Tetko et al.; mined from patent text by program, amines drawn as free bases though some values may be those of a salt) is where these values come from.
